- condition_description: 298.15 K; 101 kPa; Liquid; Vibrating tube method

compound: CC(O)CCO (centres undefined) [1,3-butanediol]
measurement_units: kg/m3
mass density: 1001.82
//
compound: OCc1ccccc1 [benzenemethanol]
measurement_units: kg/m3
mass density: 1041.22
//
compound: OCCc1ccccc1 [2-phenylethanol]
measurement_units: kg/m3
mass density: 1016.14
//
compound: CCC(C)O (centres undefined) [butan-2-ol]
measurement_units: kg/m3
mass density: 803.103

----------
- condition_description: 303.15 K; 101 kPa; Liquid; Sing-around technique in a fixed-path interferometer

compound: OCc1ccccc1 [benzenemethanol]
speed of sound, m/s: 1509.3
//
compound: CCC(C)O (centres undefined) [butan-2-ol]
speed of sound, m/s: 1194.5
//
compound: OCCc1ccccc1 [2-phenylethanol]
speed of sound, m/s: 1510.5
//
compound: CC(O)CCO (centres undefined) [1,3-butanediol]
speed of sound, m/s: 1514.1

----------
- condition_description: 298.15 K; 101 kPa; Liquid; Sing-around technique in a fixed-path interferometer
property_name: speed of sound (m/s)

compound: CCC(O)CO (stereo not given)
measurement_units: m/s
readout_number: 1452.6

compound: CCC(C)O (stereo not given)
measurement_units: m/s
readout_number: 1212.7

compound: OCCc1ccccc1
measurement_units: m/s
readout_number: 1526.1

compound: OCc1ccccc1
measurement_units: m/s
readout_number: 1525.2

compound: CC(O)CCO (stereo not given)
measurement_units: m/s
readout_number: 1527.8

----------
mass density values by entry
- condition_description: 318.15 K; 101 kPa; Liquid; Vibrating tube method
property_name: mass density (kg/m3)

compound: OCCc1ccccc1
measurement_units: kg/m3
readout_number: 1000.93
--
compound: CC(O)CCO (centres undefined)
measurement_units: kg/m3
readout_number: 988.035
--
compound: CCC(C)O (centres undefined)
measurement_units: kg/m3
readout_number: 785.692
--
compound: OCc1ccccc1
measurement_units: kg/m3
readout_number: 1025.67

----------
mass density values by entry
- condition_description: 313.15 K; 101 kPa; Liquid; Vibrating tube method
± gives the expanded uncertainty stated by the source.

compound: OCc1ccccc1 [benzenemethanol]
mass density: 1029.58 ± 0.26 kg/m3
//
compound: CC(O)CCO (centres undefined) [1,3-butanediol]
mass density: 991.528 ± 0.83 kg/m3
//
compound: OCCc1ccccc1 [2-phenylethanol]
mass density: 1004.75 ± 0.23 kg/m3
//
compound: CCC(C)O (centres undefined) [butan-2-ol]
mass density: 790.191 ± 0.24 kg/m3

----------
- condition_description: 303.15 K; 101 kPa; Liquid; Vibrating tube method
property_name: mass density (kg/m3)

molecule: OCc1ccccc1 [benzenemethanol]
readout_number: 1037.35
//
molecule: OCCc1ccccc1 [2-phenylethanol]
readout_number: 1012.39
//
molecule: CCC(C)O (centres undefined) [butan-2-ol]
readout_number: 798.891
//
molecule: CC(O)CCO (centres undefined) [1,3-butanediol]
readout_number: 998.418

----------
- condition_description: 323.15 K; 101 kPa; Liquid; Vibrating tube method
property_name: mass density (kg/m3)

compound: CCC(C)O (centres undefined)
property_name: mass density
measurement_units: kg/m3
readout_number: 781.09

compound: CC(O)CCO (centres undefined)
property_name: mass density
measurement_units: kg/m3
readout_number: 984.506

compound: OCc1ccccc1
property_name: mass density
measurement_units: kg/m3
readout_number: 1021.75

compound: OCCc1ccccc1
property_name: mass density
measurement_units: kg/m3
readout_number: 997.075

----------
- condition_description: 323.15 K; 101 kPa; Liquid; Sing-around technique in a fixed-path interferometer

molecule: CCC(C)O (centres undefined)
measurement_units: m/s
speed of sound: 1121

molecule: OCCc1ccccc1
measurement_units: m/s
speed of sound: 1447.7

molecule: OCc1ccccc1
measurement_units: m/s
speed of sound: 1447.3

molecule: CC(O)CCO (centres undefined)
measurement_units: m/s
speed of sound: 1458.3

----------
- condition_description: 318.15 K; 101 kPa; Liquid; Sing-around technique in a fixed-path interferometer

compound: CCC(C)O (centres undefined) [butan-2-ol]
speed of sound / m/s: 1139.5
//
compound: CC(O)CCO (centres undefined) [1,3-butanediol]
speed of sound / m/s: 1472.3
//
compound: OCc1ccccc1 [benzenemethanol]
speed of sound / m/s: 1462.6
//
compound: OCCc1ccccc1 [2-phenylethanol]
speed of sound / m/s: 1463.2

----------
- condition_description: 308.15 K; 101 kPa; Liquid; Vibrating tube method
Numbers after ± are expanded uncertainties.
mass density values by entry
property_name: mass density

compound: CC(O)CCO (centres undefined) [1,3-butanediol]
property_name: mass density
result: 994.987 ± 0.83 kg/m3

compound: OCc1ccccc1 [benzenemethanol]
property_name: mass density
result: 1033.47 ± 0.26 kg/m3

compound: CCC(C)O (centres undefined) [butan-2-ol]
property_name: mass density
result: 794.588 ± 0.24 kg/m3

compound: OCCc1ccccc1 [2-phenylethanol]
property_name: mass density
result: 1008.61 ± 0.24 kg/m3

----------
speed of sound values by entry
- condition_description: 308.15 K; 101 kPa; Liquid; Sing-around technique in a fixed-path interferometer

compound: OCc1ccccc1 [benzenemethanol]
speed of sound (m/s): 1493.6

compound: CC(O)CCO (stereo not given) [1,3-butanediol]
speed of sound (m/s): 1500.2

compound: OCCc1ccccc1 [2-phenylethanol]
speed of sound (m/s): 1494.7

compound: CCC(O)CO (stereo not given) [1,2-butanediol]
speed of sound (m/s): 1423.6

compound: CCC(C)O (stereo not given) [butan-2-ol]
speed of sound (m/s): 1176.2

----------
- condition_description: 313.15 K; 101 kPa; Liquid; Sing-around technique in a fixed-path interferometer
property_name: speed of sound (m/s)

compound: OCc1ccccc1 [benzenemethanol]
property_name: speed of sound
readout_number: 1478

compound: OCCc1ccccc1 [2-phenylethanol]
property_name: speed of sound
readout_number: 1479.2

compound: CCC(C)O (centres undefined) [butan-2-ol]
property_name: speed of sound
readout_number: 1157.9

compound: CC(O)CCO (centres undefined) [1,3-butanediol]
property_name: speed of sound
readout_number: 1486.3
